Target: T1, recombinant human NKG2D-Fc (human, UniProt P26718 73-216)
T1 construct: extracellular domain; also called human NKG2D-Fc fusion protein; NKG2D-Fc-biotin; not shown: human IgG1 Fc domain
T1 sequence (looked up): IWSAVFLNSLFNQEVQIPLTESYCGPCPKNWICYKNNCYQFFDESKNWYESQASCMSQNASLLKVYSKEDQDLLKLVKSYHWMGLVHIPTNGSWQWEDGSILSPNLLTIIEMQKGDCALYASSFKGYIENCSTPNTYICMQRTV
Experiment: ELISA, NKG2D-Fc coated
Outcome measure: binding result

ADI-29401 (antibody, V domains shown) VH: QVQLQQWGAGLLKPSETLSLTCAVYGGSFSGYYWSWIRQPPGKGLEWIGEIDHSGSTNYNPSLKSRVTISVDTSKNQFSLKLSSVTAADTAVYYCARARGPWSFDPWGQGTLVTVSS VL: DIQMTQSPSTLSASVGDRVTITCRASQSIGSWLAWYQQKPGKAPKLLIYKASSLESGVPSRFSGSGSGTEFTLTISSLQPDDFATYYCQQYDIYPTFGGGTKVEIK	binds
ADI-29424 (antibody, V domains shown) VH: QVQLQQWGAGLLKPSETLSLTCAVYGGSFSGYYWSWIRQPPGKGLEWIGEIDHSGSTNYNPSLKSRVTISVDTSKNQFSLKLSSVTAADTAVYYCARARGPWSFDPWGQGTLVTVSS VL: DIQMTQSPSTLSASVGDRVTITCRASQSISSWLAWYQQKPGKAPKLLIYKASSLESGVPSRFSGSGSGTEFTLTISSLQPDDFATYYCQQYDSFITFGGGTKVEIK	binds

Measured values drawn from patent US20200165344A1 for this set.
